Record form. Attribute: ED50. Fill in for each entry.
Tested on: Mus musculus
testProtocol: Dose(orally administered) required to cure 50% of Staphylococcus aureus infected mice
Format: functional
setupConditions: po
Give bare numbers, in mg/kg/day.

>  <mol>
CN[C@H](CC(C)C)C(=O)N[C@H]1C(=O)N[C@@H](CC(N)=O)C(=O)N[C@H]2C(=O)N[C@H]3C(=O)N[C@H](C(=O)N[C@H](C(=O)O)c4cc(O)cc(O)c4-c4cc3ccc4O)[C@H](O)c3ccc(c(Cl)c3)Oc3cc2cc(c3O[C@@H]2O[C@H](CO)[C@@H](O)[C@H](O)[C@H]2O[C@H]2C[C@](C)(N)[C@H](O)[C@H](C)O2)Oc2ccc(cc2Cl)[C@H]1O

>  <ED50 / mg/kg/day>
3.9

$$$$

Consider now this further compound.
Reported ED50 for CC(=O)NC[C@H]1CN(c2ccc(-n3cnc(Cl)n3)c(F)c2)C(=O)O1 was 9.4

---

System: Staphylococcus epidermidis
testProtocol: Inhibitory activity against Methicillin-resistant Staphylococcus epidermidis UC12084
Assay type: functional
metric: MIC (µg/mL)
Answers are plain numbers, in µg/mL.

Here are 2 molecules together with their reported answers.
>  <mol>
CC(=O)NC[C@H]1CN(c2ccc(-n3ccc(/C(C)=N\O)c3)c(F)c2)C(=O)O1

>  <measuredOn>
Staphylococcus epidermidis

>  <MIC [µg/mL]>
0.5

$$$$
>  <mol>
CC(=O)NC[C@H]1CN(c2ccc(-n3cnc(C#N)n3)c(F)c2)C(=O)O1

>  <measuredOn>
Staphylococcus epidermidis

>  <MIC [µg/mL]>
2

$$$$

Lab note: each molecule below needs its MIC filled in.
1. CC(=O)NC[C@H]1CN(c2ccc(-n3cnnn3)c(F)c2)C(=O)O1
2. CC(=O)NC[C@H]1CN(c2ccc(-n3cc(C#C[Si](C)(C)C)cn3)c(F)c2)C(=O)O1

Reply:
[2, 2]

---

Record form. Attribute: MIC. Fill in for each entry.
Tested on: Staphylococcus epidermidis
testProtocol: Inhibitory activity against Methicillin-resistant Staphylococcus epidermidis UC12084
Format: functional
Numbers only, in µg/mL.

Here are 5 compounds together with their reported answers.
>  <mol>
CC(=O)NC[C@H]1CN(c2ccc(-n3ccc(CCCNS(C)(=O)=O)c3)c(F)c2)C(=O)O1

>  <metric>
MIC

>  <assayResult>
2

$$$$
>  <mol>
CC(=O)NC[C@H]1CN(c2ccc(-n3ccc(=O)[nH]3)c(F)c2)C(=O)O1

>  <metric>
MIC

>  <assayResult>
1

$$$$
>  <mol>
CC(=O)NC[C@H]1CN(c2ccc(-n3cnnc3)c(F)c2)C(=O)O1

>  <metric>
MIC

>  <assayResult>
4

$$$$
>  <mol>
CC(=O)NC[C@H]1CN(c2ccc(-n3cnc(N)n3)c(F)c2)C(=O)O1

>  <metric>
MIC

>  <assayResult>
2

$$$$
>  <mol>
CC(=O)NC[C@H]1CN(c2ccc(-n3nnc(C#N)n3)c(F)c2)C(=O)O1

>  <metric>
MIC

>  <assayResult>
0.5

$$$$

Lab note: each compound below needs its MIC filled in.
1. CC(=O)NC[C@H]1CN(c2ccc(-n3cc(NC(C)=O)cn3)c(F)c2)C(=O)O1
2. CC(=O)NC[C@H]1CN(c2ccc(-n3ccc(C(C)=O)c3)c(F)c2)C(=O)O1
3. CC(=O)NC[C@H]1CN(c2ccc(-n3ccc(NC(C)=O)n3)c(F)c2)C(=O)O1
4. CCOC(=O)/C=C/c1ccn(-c2ccc(N3C[C@H](CNC(C)=O)OC3=O)cc2F)c1

Reply:
2
0.5
2
2

---

Record form. Attribute: MIC. Fill in for each entry.
System: Staphylococcus epidermidis
testProtocol: Inhibitory activity against Methicillin-resistant Staphylococcus epidermidis UC12084
Type: functional
One number for each entry, in µg/mL.

>  <mol>
CC(=O)NC[C@H]1CN(c2ccc(-n3ccc(OC(C)=O)n3)c(F)c2)C(=O)O1

>  <measuredOn>
Staphylococcus epidermidis

>  <MIC, µg/mL>
1

$$$$
>  <mol>
CO/N=C\c1ccn(-c2ccc(N3C[C@H](CNC(C)=O)OC3=O)cc2F)c1

>  <measuredOn>
Staphylococcus epidermidis

>  <MIC, µg/mL>
0.5

$$$$
>  <mol>
CC(=O)NC[C@H]1CN(c2ccc(-n3cc(C(N)=O)nn3)c(F)c2)C(=O)O1

>  <measuredOn>
Staphylococcus epidermidis

>  <MIC, µg/mL>
1

$$$$
>  <mol>
CC(=O)NC[C@H]1CN(c2ccc(-n3cc(/C(C)=N\O)nn3)c(F)c2)C(=O)O1

>  <measuredOn>
Staphylococcus epidermidis

>  <MIC, µg/mL>
2

$$$$
>  <mol>
CC(=O)NC[C@H]1CN(c2ccc(-n3ccc(CO)c3)c(F)c2)C(=O)O1

>  <measuredOn>
Staphylococcus epidermidis

>  <MIC, µg/mL>
0.25

$$$$
>  <mol>
CC(=O)NC[C@H]1CN(c2ccc(-n3ccc(C=O)c3)c(F)c2)C(=O)O1

>  <measuredOn>
Staphylococcus epidermidis

>  <MIC, µg/mL>
0.125

$$$$

Lab note: each compound below needs its MIC filled in.
1. CO/N=C/c1cn(-c2ccc(N3C[C@H](CNC(C)=O)OC3=O)cc2F)nn1
2. CC(=O)NC[C@H]1CN(c2ccc(-n3cc(I)cn3)c(F)c2)C(=O)O1
3. CC(=O)NC[C@H]1CN(c2ccc(-n3ccc(N)n3)c(F)c2)C(=O)O1
4. CC(=O)NC[C@H]1CN(c2ccc(-n3nccn3)c(F)c2)C(=O)O1

Reply:
1
1
1
1

---

Record form. Attribute: MIC. Fill in for each entry.
System: Staphylococcus epidermidis
testProtocol: Inhibitory activity against Methicillin-resistant Staphylococcus epidermidis UC12084
Format: functional
Numbers only, in µg/mL.

>  <compound>
COc1ccn(-c2ccc(N3C[C@H](CNC(C)=O)OC3=O)cc2F)n1

>  <MIC / µg/mL>
2

$$$$
>  <compound>
CC(=O)NC[C@H]1CN(c2ccc(-n3ccc(C)n3)c(F)c2)C(=O)O1

>  <MIC / µg/mL>
1

$$$$
>  <compound>
COC(=O)c1cn(-c2ccc(N3C[C@H](CNC(C)=O)OC3=O)cc2F)nn1

>  <MIC / µg/mL>
2

$$$$

Lab note: each compound below needs its MIC filled in.
1. COC(=O)c1ccn(-c2ccc(N3C[C@H](CNC(C)=O)OC3=O)cc2F)c1
2. CC(=O)NC[C@H]1CN(c2ccc(-n3ccc(C(N)=O)c3)c(F)c2)C(=O)O1
3. CNC(=O)c1cn(-c2ccc(N3C[C@H](CNC(C)=O)OC3=O)cc2F)nn1

Reply:
1: 0.5; 2: 1; 3: 2

Lab note: each compound below needs its MIC filled in.
1. CC(=O)NC[C@H]1CN(c2ccc(-n3ccc(C(C)O)c3)c(F)c2)C(=O)O1 (stereo not given in full)
2. CC(=O)NC[C@H]1CN(c2ccc(-n3nnc(/C=N/O)n3)c(F)c2)C(=O)O1
3. CC(=O)NC[C@H]1CN(c2ccc(-n3ccc(NC(=O)CO)n3)c(F)c2)C(=O)O1
4. CC(=O)NC[C@H]1CN(c2ccc(-n3cnc(Cl)n3)c(F)c2)C(=O)O1

Reply:
[4, 1, 4, 0.5]

---

Test system: Staphylococcus epidermidis
testProtocol: Inhibitory activity against Methicillin-resistant Staphylococcus epidermidis UC12084
Format: functional
metric: MIC (µg/mL)
Numbers only, in µg/mL.

Here are 8 compounds together with their reported answers.
>  <mol>
CC(=O)NC[C@H]1CN(c2ccc(-n3cnc(C(N)=O)n3)c(F)c2)C(=O)O1

>  <MIC / µg/mL>
16

$$$$
>  <mol>
CC(=O)NC[C@H]1CN(c2ccc(-n3cc(CO)nn3)c(F)c2)C(=O)O1

>  <MIC / µg/mL>
0.5

$$$$
>  <mol>
CC(=O)NC[C@H]1CN(c2ccc(-n3cc(NC(=O)OC(C)(C)C)cn3)c(F)c2)C(=O)O1

>  <MIC / µg/mL>
2

$$$$
>  <mol>
COC(=O)c1ncn(-c2ccc(N3C[C@H](CNC(C)=O)OC3=O)cc2F)n1

>  <MIC / µg/mL>
4

$$$$
>  <mol>
CC(=O)NC[C@H]1CN(c2ccc(-n3ccc(C#N)n3)c(F)c2)C(=O)O1

>  <MIC / µg/mL>
0.5

$$$$
>  <mol>
CC(=O)NC[C@H]1CN(c2ccc(-n3ccc(C(F)(F)F)n3)c(F)c2)C(=O)O1

>  <MIC / µg/mL>
2

$$$$
>  <mol>
CC(=O)NC[C@H]1CN(c2ccc(-n3cc(/C=N/O)nn3)c(F)c2)C(=O)O1

>  <MIC / µg/mL>
1

$$$$
>  <mol>
CC(=O)NC[C@H]1CN(c2ccc(-n3cccn3)c(F)c2)C(=O)O1

>  <MIC / µg/mL>
1

$$$$

Lab note: each compound below needs its MIC filled in.
1. C#Cc1cnn(-c2ccc(N3C[C@H](CNC(C)=O)OC3=O)cc2F)c1
2. CC(=O)NC[C@H]1CN(c2ccc(-n3cnc(C)n3)c(F)c2)C(=O)O1
3. CC(=O)NC[C@H]1CN(c2ccc(-n3cnc(C=O)n3)c(F)c2)C(=O)O1
4. CC(=O)NC[C@H]1CN(c2ccc(-n3ccc(NC(=O)OC(C)(C)C)n3)c(F)c2)C(=O)O1
5. CC(=O)NC[C@H]1CN(c2ccc(-n3cncn3)c(F)c2)C(=O)O1
6. CC(=O)NC[C@H]1CN(c2ccc(-n3ncnn3)c(F)c2)C(=O)O1
7. CC(=O)NC[C@H]1CN(c2ccc(-n3cc(C(C)=O)nn3)c(F)c2)C(=O)O1

Reply:
1. 1
2. 2
3. 0.5
4. 2
5. 1
6. 1
7. 1
